System: HBV
PROCEDURE DETAILS: Anti-HBV assay (inhibition of HBV replication in HepG2.cl42 cells, HBV DNA by qPCR)
Assay type: cell-based, HBV ayw strain
CONDITION SUMMARY: Hepatitis B virus, 96 h, treated four days, HBV DNA quantified by real time PCR, read-out: HBsAg EC50
pEC50: −log10 of the molar value.
EXPERIMENTAL ENDPOINT: pEC50

Observe how each entry below is paired with its result.
[[record]]
compound = "O=C(Nc1cc(F)c(F)c(F)c1)N1CCc2onc(-c3ccc(F)cc3F)c2C1"
system_name = "HBV"
experimental_endpoint = "pEC50"
result = "6.00 to 7.00"

[[record]]
compound = "C[C@H]1Cc2noc(N3CCCC3=O)c2CN1C(=O)Nc1cc(F)c(F)c(F)c1"
system_name = "HBV"
experimental_endpoint = "pEC50"
result = "> 7.00"

[[record]]
compound = "COc1ccc(-c2onc3c2CN(C(=O)Nc2cc(F)c(F)c(F)c2)[C@@H](C)C3)cc1"
system_name = "HBV"
experimental_endpoint = "pEC50"
result = "> 7.00"

[[record]]
compound = "C[C@H]1Cc2noc(-c3cccc(F)c3)c2CN1C(=O)Nc1cc(F)c(F)c(F)c1"
system_name = "HBV"
experimental_endpoint = "pEC50"
result = "6.00 to 7.00"

[[record]]
compound = "C[C@H]1Cc2noc(N3CCCCC3=O)c2CN1C(=O)Nc1ccc(C#N)c(F)c1"
system_name = "HBV"
experimental_endpoint = "pEC50"
result = "6.00 to 7.00"

[[record]]
compound = "Cc1nc(-c2onc3c2[C@H](C)N(C(=O)Nc2cc(F)c(F)c(F)c2)CC3)no1"
system_name = "HBV"
experimental_endpoint = "pEC50"
result = "6.00 to 7.00"

[[record]]
compound = "Cc1nc(-c2onc3c2CN(C(=O)Nc2cc(F)c(F)c(F)c2)[C@@H](C)C3)no1"
system_name = "HBV"
experimental_endpoint = "pEC50"
result = "6.00 to 7.00"

[[record]]
compound = "O=C(Nc1cc(F)c(F)c(F)c1)N1CCc2noc(N3CCCC3)c2C1"
system_name = "HBV"
experimental_endpoint = "pEC50"
result = "≤ 6.00"

[[record]]
compound = "Cc1cc(-c2onc3c2[C@H](C)N(C(=O)Nc2cc(F)c(F)c(F)c2)CC3)no1"
system_name = "HBV"
experimental_endpoint = "pEC50"
result = "≤ 6.00"

[[record]]
compound = "C[C@H]1Cc2noc(-c3ccccc3)c2CN1C(=O)Nc1cc(F)c(F)c(F)c1"
system_name = "HBV"
experimental_endpoint = "pEC50"
result = "6.00 to 7.00"


Request: Which value of pEC50 has been reported for Cc1nc(-c2onc3c2[C@H](C)N(C(=O)Nc2cc(F)c(F)c(F)c2)CC3)cs1 in the records?
Response: ≤ 6.00

Request: Which value of pEC50 has been reported for O=C(Nc1cc(F)c(F)c(F)c1)N1CCc2noc(N3CCCC3=O)c2C1 in the records?
Response: 6.00 to 7.00

Request: Which value of pEC50 has been reported for C[C@H]1Cc2noc(-c3ccc(F)cn3)c2CN1C(=O)Nc1cc(F)c(F)c(F)c1 in the records?
Response: 6.00 to 7.00

Request: Which value of pEC50 has been reported for COC[C@H]1CN(c2onc3c2CN(C(=O)Nc2cc(F)c(F)c(F)c2)[C@@H](C)C3)C(=O)O1 in the records?
Response: 6.00 to 7.00

Request: Which value of pEC50 has been reported for Cc1ccc(-c2onc3c2CN(C(=O)Nc2cc(F)c(F)c(F)c2)[C@@H](C)C3)cc1 in the records?
Response: 6.00 to 7.00

Request: Which value of pEC50 has been reported for C[C@H]1Cc2noc(N3CCCOC3=O)c2CN1C(=O)Nc1ccnc(C(F)F)c1 in the records?
Response: 6.00 to 7.00

Request: Which value of pEC50 has been reported for Cc1cccc(-c2onc3c2CN(C(=O)Nc2cc(F)c(F)c(F)c2)[C@@H](C)C3)c1 in the records?
Response: ≤ 6.00

Request: Which value of pEC50 has been reported for C[C@H]1Cc2noc(N3CCCOC3=O)c2CN1C(=O)Nc1cc(F)c(F)c(F)c1 in the records?
Response: > 7.00

Request: Which value of pEC50 has been reported for C[C@H]1Cc2noc(-c3ccc(Cl)cc3)c2CN1C(=O)Nc1cc(F)c(F)c(F)c1 in the records?
Response: 6.00 to 7.00

Request: Which value of pEC50 has been reported for C[C@H]1Cc2noc(N3CCCOC3=O)c2CN1C(=O)Nc1cc(F)c(F)c(C(F)F)c1 in the records?
Response: > 7.00

Request: Which value of pEC50 has been reported for O=C(Nc1cc(F)c(F)c(F)c1)N1CCc2noc(-c3ccc(F)cc3F)c2C1 in the records?
Response: 6.00 to 7.00

Request: Which value of pEC50 has been reported for C[C@H]1Cc2noc(N3CCCOC3=O)c2CN1C(=O)Nc1ccc(F)c(C(F)F)c1 in the records?
Response: > 7.00

Request: Which value of pEC50 has been reported for Cc1nc(-c2onc3c2[C@H](C)N(C(=O)Nc2cc(F)c(F)c(F)c2)CC3)c(C)o1 in the records?
Response: ≤ 6.00

Request: Which value of pEC50 has been reported for CC1c2c(noc2-c2ccc(F)cc2F)CCN1C(=O)Nc1cc(F)c(F)c(F)c1 (stereo not drawn) in the records?
Response: ≤ 6.00

Request: Which value of pEC50 has been reported for C[C@H]1Cc2noc(-c3cn(C)nn3)c2CN1C(=O)Nc1cc(F)c(F)c(F)c1 in the records?
Response: 6.00 to 7.00
